Assay: clinical
Conditions: human, in vivo, po, 300 mg/m2, Half-life
half-life listing for selected compounds.
The answer is to be given in h; state only the numeric part.

| COMPOUND | half-life (h) |
| --- | --- |
| O=C(CCCCCCC(=O)Nc1ccccc1)NO [VOR, suberoylanilide hydroxamic acid] | 2.62 |

Task: Fill in: half-life of `O=C(O)CCC(=O)Nc1ccccc1` is ___
Result: 9.18

----------
Assay: clinical
Conditions: human, in vivo, po, 300 mg/m2, Tmax
OBSERVATION_TYPE: Tmax (h)
The answer is to be given in h; state only the numeric part.

Task: Fill in: Tmax of `O=C(O)CCC(=O)Nc1ccccc1` is ___
Result: 4

----------
Assay: clinical
Settings: human, in vivo, po, 230 mg/m2, AUC0-∞
OBSERVATION_TYPE: AUC(0-inf) (ng·h/mL)
The answer is to be given in ng·h/mL; state only the numeric part.

Task: Fill in: AUC(0-inf) of O=C(O)CCC(=O)Nc1ccccc1 [4-anilino-4-oxobutanoic acid, 4-anilino-4-oxobutanoic acid] is ___
Result: 6900

----------
Test: clinical
Settings: human, in vivo, po, 230 mg/m2, Cmax
OBSERVATION_TYPE: Cmax (ng/mL)
The answer is to be given in ng/mL; state only the numeric part.

Task: Fill in: Cmax of `O=C(O)CCC(=O)Nc1ccccc1` is ___
Result: 490

----------
Experiment: clinical
Details: human, in vivo, po, 230 mg/m2, Half-life
half-life listing for selected compounds.
The answer is to be given in h; state only the numeric part.

Task: Fill in: half-life of O=C(CCCCCCC(=O)Nc1ccccc1)NO [VOR, suberoylanilide hydroxamic acid] is ___
Result: 2.61

Task: Fill in: half-life of O=C(O)CCC(=O)Nc1ccccc1 [4-anilino-4-oxobutanoic acid, 4-anilino-4-oxobutanoic acid] is ___
Result: 10.4
